- Tested on: UniProt P06213
- Assay remarks: Inhibition of GST-tagged intracellular domain of IR by homogeneous time-resolved fluorescence assay
Reported property: IC50 (µM)

P. Cn1cc(/C=C2\C(=O)NN=C2c2nccs2)c2c(OCc3ccccc3)cccc21
Q. Cc1nnsc1C1=NNC(=O)/C1=C\c1cn(C)c2cccc(OCc3c(F)ccc(F)c3Cl)c12
Param metric = IC50; output whichever of P , Q has the minimum value. Answer = label.
Q
(Q: 0.661 µM, P: 9.12 µM)

----------
- Assay remarks: Clearance in rat at 1 mg/kg, iv
- Assay type: ADME, organism-based
- Set-up: dose 1 mg/kg, route intravenous
- Assay conditions: in vivo
Reported property: clearance (mL/min)
Return type: number; implicit unit mL/min.

Find the recorded clearance belonging to Cn1cc(/C=C2\C(=O)NN=C2c2nccs2)c2c(OCc3ccccc3)cccc21 and report it.
19.6

----------
- Assay remarks: Half life in human liver microsomes
- Assay conditions: microsomes
Reported property: half-life (min)

>>> df
                                     smiles  reported_property  measurement
0  Cn1cc(/C=C2\C(=O)NN=C2c2nccs2)c2c(OCc3c(F)cccc3F)cccc21          half-life            7

1. CCOc1cccc2c1c(/C=C1\C(=O)NN=C1c1snnc1C)cn2C
2. Cn1cc(/C=C2\C(=O)NN=C2c2nccs2)c2c(OCc3ccccc3)cccc21
// pick min by half-life: 1 , 2 When you have decided, please share the label of that item.
1

----------
- Tested on: Insulin receptor (Homo sapiens, UniProt P06213)
- Assay remarks: Inhibition of GST-tagged intracellular domain of IR by homogeneous time-resolved fluorescence assay
Reported property: IC50 (nM)

I. Cn1cc(/C=C2\C(=O)NN=C2c2nccs2)c2c(OCc3c(F)cccc3F)cccc21
II. Cc1nnsc1C1=NNC(=O)/C1=C\c1cn(C)c2cccc(OCc3c(F)cccc3Cl)c12
Of I and II , whose reported IC50 is numerically smaller? Return value: the label identifying the chosen record.
I
(I: 428 nM, II: 720 nM)

----------
- Assay remarks: Half life in mouse liver microsomes
- Assay conditions: liver microsomes
Reported property: half-life (min)

>>> print(df.to_string())
                                     smiles  measurement
0  Cn1cc(/C=C2\C(=O)NN=C2c2nccs2)c2c(OCc3cccc(F)c3F)cccc21            8
1  Cn1cc(/C=C2\C(=O)NN=C2c2nccs2)c2c(OCc3cccc(F)c3)cccc21            6

----------
- Tested on: Vascular endothelial growth factor receptor 2 (Homo sapiens, UniProt P35968)
- Sequence (P35968 whole entry): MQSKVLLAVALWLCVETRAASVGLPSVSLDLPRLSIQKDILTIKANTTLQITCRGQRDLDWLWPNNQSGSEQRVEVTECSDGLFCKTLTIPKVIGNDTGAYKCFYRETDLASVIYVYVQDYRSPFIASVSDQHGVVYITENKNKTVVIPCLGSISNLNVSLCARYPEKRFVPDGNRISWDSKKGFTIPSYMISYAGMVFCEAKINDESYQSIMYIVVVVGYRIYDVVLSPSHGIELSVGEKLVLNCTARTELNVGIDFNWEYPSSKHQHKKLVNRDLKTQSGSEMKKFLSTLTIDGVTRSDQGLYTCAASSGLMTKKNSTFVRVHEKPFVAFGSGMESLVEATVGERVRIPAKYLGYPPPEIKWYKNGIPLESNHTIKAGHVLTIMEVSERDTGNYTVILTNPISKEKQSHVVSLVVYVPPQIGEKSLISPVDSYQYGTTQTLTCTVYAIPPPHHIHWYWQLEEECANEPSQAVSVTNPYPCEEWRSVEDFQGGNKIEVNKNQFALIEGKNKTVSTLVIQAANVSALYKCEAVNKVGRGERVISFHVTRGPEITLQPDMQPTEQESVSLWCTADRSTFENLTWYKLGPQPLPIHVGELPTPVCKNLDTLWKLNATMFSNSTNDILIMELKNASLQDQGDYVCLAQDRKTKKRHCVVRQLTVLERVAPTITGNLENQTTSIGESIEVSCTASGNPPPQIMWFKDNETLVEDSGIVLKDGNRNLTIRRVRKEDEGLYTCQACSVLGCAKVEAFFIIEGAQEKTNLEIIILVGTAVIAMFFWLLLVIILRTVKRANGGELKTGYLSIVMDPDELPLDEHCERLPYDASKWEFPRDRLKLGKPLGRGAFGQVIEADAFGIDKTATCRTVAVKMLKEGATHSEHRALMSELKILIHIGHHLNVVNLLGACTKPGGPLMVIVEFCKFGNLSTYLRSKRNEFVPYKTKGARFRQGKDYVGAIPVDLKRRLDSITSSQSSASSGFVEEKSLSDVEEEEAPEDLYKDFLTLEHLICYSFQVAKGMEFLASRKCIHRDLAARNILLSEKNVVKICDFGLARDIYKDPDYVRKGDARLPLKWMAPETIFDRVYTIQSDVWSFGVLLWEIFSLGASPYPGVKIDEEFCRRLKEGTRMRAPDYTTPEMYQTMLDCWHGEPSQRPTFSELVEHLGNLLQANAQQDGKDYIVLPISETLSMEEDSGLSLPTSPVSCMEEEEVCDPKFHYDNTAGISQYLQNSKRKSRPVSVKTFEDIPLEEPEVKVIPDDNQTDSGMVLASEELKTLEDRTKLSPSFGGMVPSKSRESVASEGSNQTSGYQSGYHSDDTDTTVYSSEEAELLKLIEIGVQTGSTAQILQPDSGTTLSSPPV
pIC50: −log10 of the molar value.
Reported property: pIC50

What pIC50 value was documented for this molecule, Cc1nnsc1C1=NNC(=O)/C1=C\c1cn(C)c2cccc(OCc3ccccc3)c12 ?
< 6.52

----------
pIC50: −log10 of the molar value.
Here we list compounds with their recorded pIC50 when tested on ALK tyrosine kinase receptor (Homo sapiens, UniProt Q9UM73).
Sequence (Q9UM73 whole entry): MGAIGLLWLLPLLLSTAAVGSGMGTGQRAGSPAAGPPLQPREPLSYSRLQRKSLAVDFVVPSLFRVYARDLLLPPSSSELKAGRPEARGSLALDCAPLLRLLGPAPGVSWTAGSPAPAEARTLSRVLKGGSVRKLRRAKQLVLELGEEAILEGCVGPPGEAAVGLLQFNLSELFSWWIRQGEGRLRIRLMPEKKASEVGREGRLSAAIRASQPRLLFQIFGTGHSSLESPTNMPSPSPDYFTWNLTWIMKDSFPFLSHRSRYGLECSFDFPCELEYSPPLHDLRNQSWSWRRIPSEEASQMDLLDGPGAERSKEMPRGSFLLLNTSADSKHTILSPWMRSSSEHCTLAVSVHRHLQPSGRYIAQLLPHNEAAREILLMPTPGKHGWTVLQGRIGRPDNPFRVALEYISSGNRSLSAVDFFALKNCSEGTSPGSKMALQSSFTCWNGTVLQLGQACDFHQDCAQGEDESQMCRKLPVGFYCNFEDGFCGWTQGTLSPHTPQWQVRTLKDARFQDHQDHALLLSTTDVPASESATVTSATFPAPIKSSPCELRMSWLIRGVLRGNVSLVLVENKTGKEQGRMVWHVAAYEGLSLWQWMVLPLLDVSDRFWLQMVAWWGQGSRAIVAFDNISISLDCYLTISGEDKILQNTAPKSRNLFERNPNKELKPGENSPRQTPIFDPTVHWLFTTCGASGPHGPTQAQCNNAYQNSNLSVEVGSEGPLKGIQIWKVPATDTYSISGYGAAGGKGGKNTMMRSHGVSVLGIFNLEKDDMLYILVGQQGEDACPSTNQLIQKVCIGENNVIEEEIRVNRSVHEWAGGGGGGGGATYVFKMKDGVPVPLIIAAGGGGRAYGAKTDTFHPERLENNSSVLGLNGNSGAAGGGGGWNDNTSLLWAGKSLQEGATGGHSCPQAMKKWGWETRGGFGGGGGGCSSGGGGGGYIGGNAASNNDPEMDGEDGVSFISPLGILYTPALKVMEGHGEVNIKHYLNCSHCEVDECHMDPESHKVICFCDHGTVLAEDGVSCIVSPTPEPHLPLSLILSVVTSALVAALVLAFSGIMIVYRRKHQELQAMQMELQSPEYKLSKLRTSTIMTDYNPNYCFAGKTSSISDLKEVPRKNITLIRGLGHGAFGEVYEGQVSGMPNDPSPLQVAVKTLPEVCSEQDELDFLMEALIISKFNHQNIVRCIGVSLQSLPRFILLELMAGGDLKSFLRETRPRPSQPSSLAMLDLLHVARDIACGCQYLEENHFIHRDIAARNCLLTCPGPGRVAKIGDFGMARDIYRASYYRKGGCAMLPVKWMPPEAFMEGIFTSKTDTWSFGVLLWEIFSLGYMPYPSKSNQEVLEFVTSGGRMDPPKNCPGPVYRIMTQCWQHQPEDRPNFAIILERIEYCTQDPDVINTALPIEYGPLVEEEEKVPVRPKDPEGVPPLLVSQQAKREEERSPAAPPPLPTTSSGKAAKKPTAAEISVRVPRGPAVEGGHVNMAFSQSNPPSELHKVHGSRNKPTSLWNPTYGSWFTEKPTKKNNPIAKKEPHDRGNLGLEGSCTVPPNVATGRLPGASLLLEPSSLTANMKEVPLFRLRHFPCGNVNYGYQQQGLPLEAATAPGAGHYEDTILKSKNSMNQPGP
Reported property: pIC50

In [3]: df
Out[3]:
                                     smiles                                 tested_on  reported_property  measurement
0  Cc1nnsc1C1=NNC(=O)/C1=C\c1cn(C)c2cccc(OCCN(C)C)c12  ALK tyrosine kinase receptor (Homo sapiens, UniProt Q9UM73)              pIC50         6.54
1  Cn1cc(/C=C2\C(=O)NN=C2c2nccs2)c2c(OCc3ccc(F)cc3F)cccc21  ALK tyrosine kinase receptor (Homo sapiens, UniProt Q9UM73)              pIC50         6.64
